Ref: patent US8293729B2

Assign EC50 to each entry below.
Target: human GPR119 receptor (Homo sapiens, UniProt Q8TDV5, S329A/T327A)
Construct: N-terminal leader […]; expressed in transfected cells
Sequence (Q8TDV5 with tags, fused parts or gaps T327A/S329A): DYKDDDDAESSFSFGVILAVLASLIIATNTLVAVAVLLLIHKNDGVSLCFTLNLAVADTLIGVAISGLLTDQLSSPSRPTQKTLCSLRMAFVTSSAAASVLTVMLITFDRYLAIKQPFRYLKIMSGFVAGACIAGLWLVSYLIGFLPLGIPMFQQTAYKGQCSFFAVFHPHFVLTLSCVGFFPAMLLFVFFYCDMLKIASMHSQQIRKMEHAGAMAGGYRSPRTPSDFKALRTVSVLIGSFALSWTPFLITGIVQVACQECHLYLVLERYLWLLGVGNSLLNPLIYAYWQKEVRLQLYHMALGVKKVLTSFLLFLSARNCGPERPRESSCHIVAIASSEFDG
Experiment: cAMP assay (LANCE cAMP-384) in HEK293 cells stably expressing mutant human GPR119 receptor
Type: cell-based
Conditions: cAMP accumulation, HEK293 cells stably expressing mutant human GPR119; read-out: EC50
Numbers only, in nM.

Answered examples (8):
[
  {
    "STRUCTURE_NOTATION": "CC(C)OC(=O)N1CCC(ON=C2CCN(c3ncc(F)cc3F)CC2)CC1",
    "EC50 [nM]": 1020
  },
  {
    "STRUCTURE_NOTATION": "CC(C)OC(=O)N1CCC(ON=C2CCN(c3cc(F)c(-c4cscn4)cc3F)CC2)CC1",
    "EC50 [nM]": 3080
  },
  {
    "STRUCTURE_NOTATION": "CC(C)OC(=O)N1CCC(ON=C2CCN(c3cc(F)c(-c4cnco4)cc3F)CC2)CC1",
    "EC50 [nM]": 100
  },
  {
    "STRUCTURE_NOTATION": "CC(C)OC(=O)N1CCC(ON=C2CCN(c3cc(F)c(-c4ccc[nH]4)cc3F)CC2)CC1",
    "EC50 [nM]": 436
  },
  {
    "STRUCTURE_NOTATION": "CC(C)OC(=O)N1CCC(ON=C2CCN(c3cc(F)c(CS(=O)(=O)C4CC4)cc3F)CC2)CC1",
    "EC50 [nM]": 19
  },
  {
    "STRUCTURE_NOTATION": "CC(C)OC(=O)N1CCC(ON=C2CCN(c3cc(F)c(CNS(N)(=O)=O)cc3F)CC2)CC1",
    "EC50 [nM]": 312
  },
  {
    "STRUCTURE_NOTATION": "CC(C)OC(=O)N1CCC(ON=C2CCN(c3cc(F)c(Cn4ccnn4)cc3F)CC2)CC1",
    "EC50 [nM]": 32
  },
  {
    "STRUCTURE_NOTATION": "CC(C)OC(=O)N1CCC(ON=C2CCN(c3ccc(F)c(F)n3)CC2)CC1",
    "EC50 [nM]": 2590
  }
]

Quick one: give me EC50 for each item below, same order please.
1. CCc1cnc(-c2cc(F)c(N3CCC(=NOC4CCN(C(=O)OC(C)C)CC4)CC3)cc2F)nc1
2. CC(C)OC(=O)N1CCC(ON=C2CCN(c3ncccc3F)CC2)CC1
3. Cc1ccc(-c2cc(F)c(N3CCC(=NOC4CCN(C(=O)OC(C)C)CC4)CC3)cc2F)cn1
4. CC(C)OC(=O)N1CCC(ON=C2CCN(c3cc(F)c(C#N)cc3F)CC2)CC1
5. CC(C)OC(=O)N1CCC(ON=C2CCN(c3cc(F)c(-c4cn[nH]c4)cc3F)CC2)CC1

*A*
[509, 630, 435, 397, 177]

*Q* Record `CC(C)OC(=O)N1CCC(ON=C2CCN(c3ccc(S(N)(=O)=O)cc3F)CC2)CC1` : what is its EC50 with human GPR119 receptor (Homo sapiens, UniProt Q8TDV5, S329A/T327A)?
*A* 130
